System: U-87 MG
Assay: Cytotoxicity against human U87 cells assessed as decrease in cell viability incubated for 24 hrs by MTT assay
Format: functional, cell-based, U-87MG ATCC
pIC50: −log10 of the molar value.
Observable: pIC50

> print(dat)
                            chemical.smiles  observable  comparison.operator  numeric.result
1  COc1cc(CNC(=O)Nc2ccc([N+](=O)[O-])cc2)ccc1O       pIC50                    =            4.01
2             CCCCCCNC(=S)NCc1ccc2c(c1)OCO2       pIC50                    =            4.06
3         COc1cc(CNC(=O)Nc2ccc(Cl)cc2)ccc1O       pIC50                    =            4.03
4        COc1cc(CNC(=O)CCCC/C=C/C(C)C)ccc1O       pIC50                    <            4.00
5       COc1ccc(NC(=O)NCc2ccc(O)c(OC)c2)cc1       pIC50                    <            4.00
